- ASSAY SYSTEM: Nuclear receptor subfamily 1 group D member 1 (Homo sapiens)
- Sequence (P20393 whole entry, the tested form may be a part): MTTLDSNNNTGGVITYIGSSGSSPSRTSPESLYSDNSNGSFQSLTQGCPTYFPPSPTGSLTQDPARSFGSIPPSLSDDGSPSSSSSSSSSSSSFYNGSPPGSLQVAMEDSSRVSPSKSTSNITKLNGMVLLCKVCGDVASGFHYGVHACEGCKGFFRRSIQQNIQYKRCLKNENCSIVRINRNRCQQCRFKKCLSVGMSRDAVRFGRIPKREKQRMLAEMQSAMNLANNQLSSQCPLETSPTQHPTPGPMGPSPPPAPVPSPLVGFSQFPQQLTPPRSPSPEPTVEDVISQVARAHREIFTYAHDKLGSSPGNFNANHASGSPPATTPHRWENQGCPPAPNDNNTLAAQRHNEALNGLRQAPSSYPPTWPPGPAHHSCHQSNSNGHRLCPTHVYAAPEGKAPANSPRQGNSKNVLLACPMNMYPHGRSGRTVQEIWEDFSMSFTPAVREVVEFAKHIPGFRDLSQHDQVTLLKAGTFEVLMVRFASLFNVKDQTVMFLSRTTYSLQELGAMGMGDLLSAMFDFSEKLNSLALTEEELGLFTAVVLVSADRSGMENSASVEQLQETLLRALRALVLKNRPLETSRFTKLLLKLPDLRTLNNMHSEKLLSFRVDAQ
- EXPERIMENT SUMMARY: Inverse agonist activity at Rev-Erb alpha LBD (unknown origin) by FRET assay
EXPERIMENTAL ENDPOINT: pEC50
Quick note: pEC50 values are minus log10 of concentrations in mol/L.

## Input Answer with the recorded pEC50 for the compound listed here: "COCCNc1oc(-c2ccc(N(C)Cc3ccc(Cl)cc3)cc2)nc1C#N"
## Output 6.82
